- conditionsUsed: spirolactone dyes; table title says PBS, text (b560-b564) says maximal ε when ring-opened in EtOH/0.1% TFA
reportedProperty: ε (M^−1 cm^−1)

> print(dat)
                                   compound              result
1  C[Si@]1(CCCCl)c2cc(N3CCC3)ccc2[C@@]2(OC(=O)c3ccccc32)c2ccc(N3CCC3)cc21 [Compound 035]  183,000 M^−1 cm^−1
2  CN(C)c1ccc2c(c1)[Si@](C)(CCCSCC(=O)O)c1cc(N(C)C)ccc1[C@]21OC(=O)c2ccccc21 [Compound 063]  180,600 M^−1 cm^−1
3  CN(C)c1ccc2c(c1)[Si@](C)(CCCN=[N+]=[N-])c1cc(N(C)C)ccc1[C@@]21OC(=O)c2ccccc21 [Compound 054]  218,400 M^−1 cm^−1
4  C=C[Si]1(C=C)c2cc(N3CCC3)ccc2C2(OC(=O)c3ccccc32)c2ccc(N3CCC3)cc21 [Compound 034]   80,000 M^−1 cm^−1

Sourced from patent US20250003877A1
